- Method Summary: inhibitors of TNFa-induced NFkB p65 translocation, primary screen, imaging, HUVEC, MLSMR starter and 10KST1 sets (AID 438);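 note: compound added about 3h40 before a 20 min TNFalpha stimulation; signal is the nuclear over cytoplasmic p65 intensity ratio per well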
- Particulars: HUVEC TNFa-induced p65 nuclear translocation; at 2 µM, hits give high values, 0% TNFa-plus-vehicle, 100% no-TNFa wells
Measured inhibition by item
// units = %; emit number, no label

{"columns": ["Compound", "Value Measured"],
 "data": [
  ["COc1ccc(C2CC(=O)C(C=NCCN3CCOCC3)=C(O)C2)cc1 (configuration not stated)", -8.5],
  ["O=C(CN1C(=O)c2ccccc2S1(=O)=O)c1ccccc1", -7.2],
  ["COC(=O)C1=C(C)OC(N)=C(C#N)C1c1ccc(OC)c(OC)c1OC (configuration not stated)", -10.3],
  ["COc1cccc(C2C(C#N)=C(N)Oc3cc(C)[nH]c(=O)c32)c1OC (configuration not stated)", -31.3],
  ["Cn1c(=O)c2c(nc(NCc3ccc4c(c3)OCO4)n2Cc2ccc(F)cc2)n(C)c1=O", 3.1],
  ["CC(Sc1nc(N2CCCCC2)c2c(c1C#N)CCCC2)C(=O)O (configuration not stated)", 4.5]
]}

Q: Need inhibition of COCCc1ccc(OCC(O)CNC(C)C)cc1 (configuration not stated) , thanks.
Result: 1.4

Q: Need inhibition of "O=C(Nc1ccccn1)NC(C(F)(F)F)C(F)(F)F" , thanks.
Result: -2.9

Q: Need inhibition of c1ccc2c(c1)NC(c1ccncc1)n1c-2nc2ccccc21 (configuration not stated) , thanks.
Result: 5

###

Measured NADPH fluorescence slope by item
- Assayed System: Voltage-gated potassium channel subunit beta-2 (Rattus norvegicus)
- Method Summary: KvBeta positive modulators, primary screen, biochemical, NADPH fluorescence (AID 623);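 note: fluorescence intensity change per second fitted from 20 to 320 s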
- Particulars: Recombinant KvBeta, NADPH fluorescence decrease slope, 10 min; at 10 µM; hits give low values
Note: the reply should be a number with no unit written.

Worked set:
{"columns": ["Compound", "Assayed System", "NADPH fluorescence slope"],
 "data": [
  ["CCCCOC(=O)CSc1nc(N)c(C#N)c(-c2ccc(OC)cc2)c1C#N", "Voltage-gated potassium channel subunit beta-2 (Rattus norvegicus)", "-6.6e-05"],
  ["COc1cccc(C2C(C(=O)c3cc4ccccc4o3)=C(O)C(=O)N2CCN(C)C)c1OC (centres undefined)", "Voltage-gated potassium channel subunit beta-2 (Rattus norvegicus)", "-4.6e-05"],
  ["C[C@]12CCC(=O)C=C1CC[C@@H]1[C@@H]2[C@@H](O)C[C@@]2(C)[C@H]1CC[C@]2(O)C(=O)CO", "Voltage-gated potassium channel subunit beta-2 (Rattus norvegicus)", "-3.2e-05"],
  ["CCOC(=O)c1[nH]c2ccc(OC)cc2c1NC(=O)CN1CCN(c2ccccn2)CC1", "Voltage-gated potassium channel subunit beta-2 (Rattus norvegicus)", "2.2e-06"],
  ["O=C1C2ON(c3ccccc3)C(c3ccncc3)C2C(=O)N1c1ccc(Br)cc1 (centres undefined)", "Voltage-gated potassium channel subunit beta-2 (Rattus norvegicus)", -0.000135]
]}

Q: Need NADPH fluorescence slope of "O=C(NCc1ccco1)c1cnn2c(C(F)(F)F)cc(-c3ccco3)nc12" , thanks.
Result: -6.2e-05

Q: Need NADPH fluorescence slope of "N#Cc1nc(-c2ccccc2Cl)oc1N1CCCCC1" , thanks.
Result: -6.6e-05

Q: Need NADPH fluorescence slope of "COc1cc(NS(=O)(=O)c2ccc(N)cc2)nc(OC)n1" , thanks.
Result: -7e-05

Q: Need NADPH fluorescence slope of "COc1cccc(-c2nnc3sc(-c4ccc(Cl)cc4)nn23)c1" , thanks.
Result: -1.5e-05

Q: Need NADPH fluorescence slope of Cc1ccc(-c2ccccc2NC(=O)C2C3C=CC(C3)C2C(=O)O)o1 (centres undefined) , thanks.
Result: 5.5e-06

Q: Need NADPH fluorescence slope of "N#CCSc1nc2c(cc1C#N)CCCCCC2" , thanks.
Result: -8.7e-06

Q: Need NADPH fluorescence slope of "CC(C)C[C@H](NC(=O)[C@@H]1O[C@H]1C(=O)O)C(=O)NCCCCN=C(N)N" , thanks.
Result: -4.3e-05

Q: Need NADPH fluorescence slope of "Fc1cc(F)c(F)c(SCCc2ccncc2)c1F" , thanks.
Result: -1.5e-05

Q: Need NADPH fluorescence slope of CC1(C)Cc2c(C#N)c(NCC3CCCO3)nc(-c3ccco3)c2CO1 (centres undefined) , thanks.
Result: 1e-05

Q: Need NADPH fluorescence slope of "CC(C)Cn1cnc2c(c1=O)c1nc3ccccc3nc1n2Cc1ccc2c(c1)OCO2" , thanks.
Result: -0.000121

Q: Need NADPH fluorescence slope of "CNCCCC12CCC(c3ccccc31)c1ccccc12" , thanks.
Result: -9.7e-05

###

- Assayed System: Voltage-gated potassium channel subunit beta-2 (Rattus norvegicus)
- Method Summary: KvBeta enzyme negative modulators, primary screen, biochemical, NADPH fluorescence (AID 622);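 note: slope of raw intensity against log time taken from 70 to 1610 s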
- Particulars: recombinant KvBeta, 4-cyanobenzaldehyde reduction, at 10 µM, hits give high values
Please enter t where fluorescence slope is greater than or equal to -0.5, and f where it is lower.

For orientation, consider the following solved cases.
{"columns": ["Compound", "Assigned Label"],
 "data": [
  ["COc1cc(C2NC(=O)NC(C)=C2C(=O)Nc2cccc(C)c2C)cc(OC)c1OC (stereo unspecified)", "t"],
  ["CCCc1[nH]nc2c1C(c1c(C)nn(-c3ccccc3)c1Cl)C(C#N)=C(N)O2 (stereo unspecified)", "t"],
  ["COc1cccc(-c2nc(N3CCCCC3)c3ccccc3n2)c1O", "t"]
]}

Let us examine a further case.
Q: Could you tell me if the measured fluorescence slope of "COC(=O)C(NC(C)=O)(Nc1ccc(Br)cc1)C(=O)OC" reaches -0.5 or more?
Result: f

###

- Method Summary: inhibitors of TNFa-induced NFkB p65 translocation, primary screen, imaging, HUVEC, MLSMR starter and 10KST1 sets (AID 438);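 note: compound added about 3h40 before a 20 min TNFalpha stimulation; signal is the nuclear over cytoplasmic p65 intensity ratio per well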
- Particulars: HUVEC TNFa-induced p65 nuclear translocation; at 2 µM, 0% TNFa-plus-vehicle, 100% no-TNFa wells
Calls of active or inactive are those of the source.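 The calls were made as follows: active = inhibition above 20% together with a positive visual image hit; inconclusive = visual image hit but inhibition not above 20%; inactive = no visual image hit.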
Respond only with the outcome that fits, drawn from true (1) = active, false (0) = inactive

For orientation, consider the following solved cases.
{"columns": ["Molecule", "Assigned Label"],
 "data": [
  ["Cc1cc(C(F)(F)F)c(C#N)c(SCC(=O)NC2CC2)n1", "false (0)"],
  ["O=C1[C@@H]2[C@H](C(=O)N1n1cnnc1)[C@H]1C=C[C@@H]2C1", "false (0)"],
  ["CCC1CCCCN1c1nc(-c2cccc(OC)c2O)nc2ccccc12 (stereo not drawn)", "false (0)"],
  ["CCOC(=O)NC(O)C(=O)c1cccs1 (stereo not drawn)", "false (0)"],
  ["CC(=O)OCc1c(COC(C)=O)[n+](=O)c2ccccc2n1[O-]", "false (0)"],
  ["Fc1ccc(C2C3=C(Nc4ncnn42)c2ccccc2OC3c2ccncc2)cc1 (stereo not drawn)", "false (0)"],
  ["CN1CCN(C2=Nc3ccccc3Oc3ccc(Cl)cc32)CC1", "false (0)"],
  ["CCCc1[nH]n(-c2nc3ccccc3s2)c(=O)c1C=NCCN1CCOCC1", "false (0)"]
]}

Let us examine a further case.
Q: Recorded call for "Cc1cc(C)n2c3c(c(C#N)c2n1)CC(C)(C)OC3" ?
Result: false (0)

###

Measured inhibition by item
- Method Summary: inhibitors of TNFa-induced NFkB p65 translocation, primary screen, imaging, HUVEC, MLSMR starter and 10KST1 sets (AID 438);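 note: compound added about 3h40 before a 20 min TNFalpha stimulation; signal is the nuclear over cytoplasmic p65 intensity ratio per well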
- Particulars: HUVEC TNFa-induced p65 nuclear translocation; at 2 µM, hits give high values, 0% TNFa-plus-vehicle, 100% no-TNFa wells
Active and inactive are the calls of the source.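 The calls were made as follows: active = inhibition above 20% together with a positive visual image hit; inconclusive = visual image hit but inhibition not above 20%; inactive = no visual image hit.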

Worked set:
{"columns": ["Compound", "inhibition"],
 "data": [
  ["O=c1[nH]nc2n1CCCCC2", "-27.5% (inactive)"],
  ["CC(C)CC(=O)Nc1ccccc1N1CCCC1", "3.1% (inactive)"],
  ["CN(C)c1ccc(C2C3C(=O)N(c4ccc(C(=O)O)cc4)C(=O)C3ON2c2ccccc2)cc1 (stereo unspecified)", "-9.3% (inactive)"]
]}

Q: Need inhibition of "CCN(CC)CCNC(=O)c1cc(Cl)c(N)cc1OC" , thanks.
Result: -4.5% (inactive)

Q: Need inhibition of CCOC(=O)C1CCN(c2nc3ccccc3nc2C(C#N)C(=O)OCCOC)CC1 (stereo unspecified) , thanks.
Result: -5.7% (inactive)

Q: Need inhibition of "Cc1cc(C)n(-c2nnc(C)n2/N=C/c2ccco2)n1" , thanks.
Result: -8.3% (inactive)

Q: Need inhibition of "CCCCn1c(O)c(C=NCCCN(C)C)c(=O)[nH]c1=O" , thanks.
Result: 4.1% (inactive)

###

- Assayed System: Dual specificity protein phosphatase 6 (Homo sapiens) (UniProt Q16828)
- Sequence (Q16828 whole entry, looked up): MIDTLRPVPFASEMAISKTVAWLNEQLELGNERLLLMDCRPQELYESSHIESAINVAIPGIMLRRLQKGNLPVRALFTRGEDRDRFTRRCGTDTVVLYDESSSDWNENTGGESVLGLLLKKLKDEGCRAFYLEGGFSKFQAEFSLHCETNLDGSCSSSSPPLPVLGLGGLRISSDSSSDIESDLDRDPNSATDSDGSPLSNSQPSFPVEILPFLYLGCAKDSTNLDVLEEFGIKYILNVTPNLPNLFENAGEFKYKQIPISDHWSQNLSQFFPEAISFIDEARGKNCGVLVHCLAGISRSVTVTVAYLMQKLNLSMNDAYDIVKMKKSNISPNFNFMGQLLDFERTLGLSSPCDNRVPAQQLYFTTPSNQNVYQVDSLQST
- Method Summary: DUSP6 inhibitors restoring Erk phosphorylation by chemical complementation, primary imaging in DUSP6-transfected HeLa (AID 609);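 note: phospho-Erk level distribution per well compared with pooled transfected vehicle control wells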
- Particulars: HeLa MKP-3 transfected, phospho-Erk imaging KS statistic; at 10 µM; hits give high values; cells stimulated with TPA for 15 min
Measured inhibition by item
// units = %; emit number, no label

Q: Need inhibition of "CCCSc1nc(N2CCCC2)c2c(c1C#N)CC(C)(C)OC2" , thanks.
Result: 36.9

Q: Need inhibition of "CCCCc1nc2n[nH]c(N)c2c2c1CCCC2" , thanks.
Result: 3.49

Q: Need inhibition of O=C1CC(c2ccccc2)NC(=O)N1 (configuration not stated) , thanks.
Result: 9.39

Q: Need inhibition of O=C1CC(c2ccco2)CC(O)=C1C=Nc1cc(Cl)ccc1O (configuration not stated) , thanks.
Result: 1.04

Q: Need inhibition of "COC(=O)c1ccccc1NC(=O)CSc1nnc(-c2ccncc2)o1" , thanks.
Result: 3.42

Q: Need inhibition of "CCSc1nnc(N(CCC(=O)O)CCC(=O)O)s1" , thanks.
Result: 7.48

Q: Need inhibition of "Nc1cccc(C(=O)O)c1" , thanks.
Result: 12.4
